Reported Inhibition 1 values for a set of compounds
- target-of-assay: cloned human or rodent CNS receptors, channels, and transporters (PDSP panel) (Homo sapiens)
- Construct: expressed in transfected cells
- procedure-text: PDSP GPCR panel primary binding assays at 10 μM
- measurement-setup: Alpha2B; primary assay, replicate 1
The reply should contain only the number, in %.

Here is how some compounds turned out for Inhibition 1.
{"compound": "CNc1nc(C)nc(N[C@H]2CCC[C@@H](C(=O)NCc3ccc(C#N)cc3C(F)(F)F)C2)n1 [UNC10302679A, GSK2256294A]", "measurement-units": "%", "Inhibition 1": 12.19}
{"compound": "CC(=O)N1CCC(NC(=O)NC23CC4CC(CC(C4)C2)C3)CC1 [UNC10302683A, AR9281]", "measurement-units": "%", "Inhibition 1": 9.7}
{"compound": "CCC(=O)N1CCC(NC(=O)Nc2ccc(OC(F)(F)F)cc2)CC1 [UNC10302681A, TPPU]", "measurement-units": "%", "Inhibition 1": 1.27}

O=C(NC1CC1)C(=O)C(Cc1ccccc1)NC(=O)[C@H]1CCC(=O)N1Cc1ccccc1 (stereo partly shown) [UNC10302676A, ABT-957 (Alicapistat)] has a reported Inhibition 1 of 16.01

====

- target-of-assay: cloned human or rodent CNS receptors, channels, and transporters (PDSP panel) (Homo sapiens, UniProt P21728)
- Construct: expressed in transfected cells
- Sequence (P21728 whole entry): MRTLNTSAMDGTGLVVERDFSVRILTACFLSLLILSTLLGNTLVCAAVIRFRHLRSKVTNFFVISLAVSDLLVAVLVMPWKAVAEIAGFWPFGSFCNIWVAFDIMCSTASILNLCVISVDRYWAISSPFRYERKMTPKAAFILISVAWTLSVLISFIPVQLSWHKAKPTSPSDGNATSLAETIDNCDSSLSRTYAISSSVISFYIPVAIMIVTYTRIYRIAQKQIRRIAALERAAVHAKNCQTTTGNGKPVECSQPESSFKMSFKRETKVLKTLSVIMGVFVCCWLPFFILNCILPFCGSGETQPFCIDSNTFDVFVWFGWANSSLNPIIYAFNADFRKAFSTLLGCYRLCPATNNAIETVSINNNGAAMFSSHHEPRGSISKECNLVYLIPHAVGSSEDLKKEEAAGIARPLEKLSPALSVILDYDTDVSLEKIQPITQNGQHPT
- procedure-text: PDSP GPCR panel primary binding assays at 10 μM
- measurement-setup: Receptor D1; primary assay, 10 μM
Reported Inhibition 3 values for a set of molecules
The reply should contain only the number, in %.

Cl.NC(=O)c1cnc(N[C@@H]2CCCC[C@@H]2N)nc1Nc1cccc(-n2nccn2)c1 [UNC10302682A, P505-15 (PRT06207 HCl)] has a reported Inhibition 3 of 12.71

CCCCNc1ncc2c(-c3ccc(CN4CCN(C)CC4)cc3)cn([C@H]3CC[C@H](O)CC3)c2n1 [UNC2025C, UNC2025] has a reported Inhibition 3 of 17.73

O=c1oc2ccccc2cc1-c1cn2cc(Cc3ccc(F)cc3)sc2n1 [UNC10302680A, iMDK] has a reported Inhibition 3 of -0.89

c1cn2cc(-c3ccc4cn[nH]c4c3)nc(Nc3ccc(N4CCOCC4)cc3)c2n1 [UNC10302678A, Entospletinib (GS-9973)] has a reported Inhibition 3 of -32.95

====

- target-of-assay: cloned human or rodent CNS receptors, channels, and transporters (PDSP panel) (Homo sapiens, UniProt P21728)
- Construct: expressed in transfected cells
- procedure-text: PDSP GPCR panel primary binding assays at 10 μM
- measurement-setup: D1; primary assay, mean inhibition
endpoint-label: Mean % (%)
The reply should contain only the number, in %.

Here is how some compounds turned out for Mean %.
{"compound": "CC(=O)N1CCC(NC(=O)NC23CC4CC(CC(C4)C2)C3)CC1 [UNC10302683A, AR9281]", "measured-result": -14.57}
{"compound": "CNc1nc(C)nc(N[C@H]2CCC[C@@H](C(=O)NCc3ccc(C#N)cc3C(F)(F)F)C2)n1 [UNC10302679A, GSK2256294A]", "measured-result": 9.96}

CCC(=O)N1CCC(NC(=O)Nc2ccc(OC(F)(F)F)cc2)CC1 [UNC10302681A, TPPU] has a reported Mean % of -1.82
